Data origin: paper PMC6801585

# Tested on: DU145
# measurement-description: In vitro anti-proliferative activity (MTT assay)
# Type: cell-based
# condition-parameters: Homo sapiens, DU-145, DU145 (prostate), 24 h treatment + 48 h culture, average ± SD
pIC50: −log10 of the molar value.
value-kind: pIC50

> print(dat)
                                   compound  reading
1  COc1cccc2c1C(=O)c1c(O)c3c(c(O)c1C2=O)C[C@@](O)(C(C)=O)C[C@@H]3O[C@H]1C[C@H](N)[C@H](O)[C@H](C)O1 [Dau, daunorubicin]     7.79

---

# System: OVCAR-3
# measurement-description: In vitro anti-proliferative activity (MTT assay)
# Assay type: cell-based
# condition-parameters: Homo sapiens, OVCAR-3 (ovarian), 24 h treatment + 48 h culture, average ± SD
pIC50: −log10 of the molar value.
value-kind: pIC50

> print(dat)
                                   molecule  value.kind  reading
1  COc1cccc2c1C(=O)c1c(O)c3c(c(O)c1C2=O)C[C@@](O)(C(C)=O)C[C@@H]3O[C@H]1C[C@H](N)[C@H](O)[C@H](C)O1 [Dau, daunorubicin]       pIC50     6.39
